readoutName: melting point (°C)
Give bare numbers, in °C.

Recorded melting point, per entry:
In: For the molecule FC(F)(F)c1nn(CN2CCOCC2)c(=S)n1/N=C/c1ccc2c(c1)OCO2 , report melting point.
Out: 183

In: For the molecule N#Cc1cnc(Br)nc1N , report melting point.
Out: 250

In: For the molecule CC1CCCCS1 (configuration not stated) , report melting point.
Out: -58

List reported melting point for each of these molecules:
1. COC(=O)c1ccsc1N
2. NC(=O)/C(=N\Nc1cc(Cl)ccc1Cl)c1nc2ccccc2s1
3. O=C1OC2(c3ccccc31)c1cc(Br)c(O)c(Br)c1Oc1c2cc(Br)c(O)c1Br

Out:
79
270
295

In: For the molecule OCc1ccccc1CN1CCOCC1 , report melting point.
Out: 59

---

Categorize each record by its melting point using low (below 80 °C), mid (80 °C to below 200 °C), high (200 °C or more)

In: Determine which band this molecule sits in: CCCCNC(=O)C(c1cc2ccccc2c2ccccc12)N(Cc1ccco1)C(=O)Cc1ccccc1 (centres undefined)
Out: mid

In: Determine which band this molecule sits in: O=C(c1ccc(F)cc1)c1cccs1
Out: mid

In: Determine which band this molecule sits in: O=C(O)Cc1ccc(Cl)cc1C(F)(F)F
Out: mid

In: Determine which band this molecule sits in: C=CC(=O)ON1C(=O)CCC1=O
Out: low

In: Determine which band this molecule sits in: CC(=O)OCC1=CC2OC(=O)C3=COC(OC4OC(CO)C(O)C(O)C4O)C1C32 (centres undefined)
Out: mid

In: Determine which band this molecule sits in: Cc1cc(C(F)(F)F)n2nc(N)c(/N=N/c3cc(Cl)c(Cl)cc3Cl)c2n1
Out: high

More entries:
In: Determine which band this molecule sits in: O=S(=O)(Cl)c1cc(F)c(Br)cc1F
Out: low

In: Determine which band this molecule sits in: CNNC
Out: low

In: Determine which band this molecule sits in: O=C(OCc1ccccc1)c1ccccc1O
Out: low

---

Kind request: treat 90 °C as inclusive, so melting point at 90 °C or higher is y, anything lower is n.

Worked set:
In: Has C=C1C(=O)C23C4CC5C(C)(C=O)CCCC5(C(=O)O4)C2C(OC(C)=O)CC1C3O (stereo not drawn) a recorded melting point greater than or equal to 90 °C?
Out: y

In: Has COc1ccc2cc(CCC(C)=O)ccc2c1 a recorded melting point greater than or equal to 90 °C?
Out: n

In: Has CC(=O)N[Si](C)(C)C a recorded melting point greater than or equal to 90 °C?
Out: n

In: Has Nc1cc(Br)cnc1Cl a recorded melting point greater than or equal to 90 °C?
Out: y

In: Has CC(C)C(=O)C(=O)O a recorded melting point greater than or equal to 90 °C?
Out: n

In: Has O=c1[nH]c2ccccc2n1-c1ccccc1 a recorded melting point greater than or equal to 90 °C?
Out: y

More entries:
In: Has O=C1c2ccccc2C(=O)N1Br a recorded melting point greater than or equal to 90 °C?
Out: y

---

The threshold is 200 °C. Values of melting point beneath it are tagged yes (1); values meeting or exceeding it are tagged no (0).

Worked set:
In: Bench note: check whether CC(=O)Nc1ccc(N=Nc2ccc(N)cc2)cc1 shows melting point below 200 °C
Out: no (0)

In: Bench note: check whether C=CCC1(CC(=C)Br)C(=O)NC(=O)NC1=O shows melting point below 200 °C
Out: yes (1)

In: Bench note: check whether C=CCN=C(S)NCCO shows melting point below 200 °C
Out: yes (1)

In: Bench note: check whether C1C2CC3CC1CC(C2)C3 shows melting point below 200 °C
Out: no (0)

In: Bench note: check whether S=c1sc2ccccc2n1CSc1nc2ccccc2s1 shows melting point below 200 °C
Out: no (0)

More entries:
In: Bench note: check whether CCCCCC(c1ccccc1)c1ccccc1 shows melting point below 200 °C
Out: yes (1)

In: Bench note: check whether FC(F)(F)c1cccc(C(c2ccccc2)(c2ccccc2)n2cncn2)c1 shows melting point below 200 °C
Out: yes (1)

In: Bench note: check whether CN1C2CC3CC1C(O3)C2O (stereo not drawn) shows melting point below 200 °C
Out: yes (1)

---

Kind request: treat 90 °C as inclusive, so melting point at 90 °C or higher is 1, anything lower is -1.

In: Has Cc1cc(C)c(O)c([N+](=O)[O-])c1 a recorded melting point greater than or equal to 90 °C?
Out: -1

In: Has CC(=O)OC1CC(=O)OC1=O (stereo not drawn) a recorded melting point greater than or equal to 90 °C?
Out: -1

In: Has CC(C)(C)N(NC(=O)c1ccccc1)C(=O)c1cc(Cl)ccc1Cl a recorded melting point greater than or equal to 90 °C?
Out: 1

In: Has NCCOCCO a recorded melting point greater than or equal to 90 °C?
Out: -1

More entries:
In: Has Brc1cccc(Oc2ccc(Br)cc2Br)c1 a recorded melting point greater than or equal to 90 °C?
Out: -1

---

readoutName: melting point (°C)
Numbers only, in °C.

Recorded melting point, per entry:
In: For the molecule CNC(=O)ON=CC(C)(C)S(C)(=O)=O , report melting point.
Out: 141

In: For the molecule CC(C)COC(=O)c1ccccc1O , report melting point.
Out: 5.9

In: For the molecule Cc1nc([N+](=O)[O-])cn1CCC(N)=NO , report melting point.
Out: 207

In: For the molecule FC(F)(F)c1cccc(Cl)c1 , report melting point.
Out: -56

In: For the molecule NNC(=O)c1ccc2c(c1)OCO2 , report melting point.
Out: 174

In: For the molecule Nc1ccccc1CO , report melting point.
Out: 83.5

In: For the molecule Oc1ccc(C2COc3cc(O)ccc3C2)cc1 (stereo unspecified) , report melting point.
Out: 190

In: For the molecule O=C(Cl)c1sc(-c2ccccc2)nc1-c1ccccc1 , report melting point.
Out: 139

In: For the molecule Cn1c2ccccc2n2c(=O)c3ccncc3c(C#N)c12 , report melting point.
Out: 296

In: For the molecule CC(=O)OCCOCCOC(C)=O , report melting point.
Out: 18

List reported melting point for each of these molecules:
1. Cc1ccccc1N=O
2. CCC1(c2ccccc2)C(=O)N(COC)C(=O)N(COC)C1=O
3. O=C1C(C(O)c2ccc(Cl)cc2Cl)C(C(F)(F)F)=NN1c1ccccc1 (stereo unspecified)
4. CCOC(=O)C(=Cc1cc(C=C(C(=O)OCC)C(=O)OCC)cc([N+](=O)[O-])c1)C(=O)OCC
5. O=C(O)c1cc2cc(OCc3ccccc3)ccc2[nH]1

Out:
[73.5, 117, 249, 80, 197]

List reported melting point for each of these molecules:
1. CCCNc1cc(=O)oc2ccccc12
2. CCCCCCCCCc1ccccc1

Out:
1: 111; 2: -24

---

I'd be grateful if you could share measured melting point for these entries.

Recorded melting point, per entry:
In: For the molecule COc1ccc(CC2NCC(O)C2OC(C)=O)cc1 (stereo unspecified) , report melting point.
Out: 141 °C

In: For the molecule C=CC1CN2CCC1CC2C(O)c1ccnc2ccc(O)cc12 (stereo unspecified) , report melting point.
Out: 202 °C

In: For the molecule NC(=O)c1sccc1N , report melting point.
Out: 120 to 122 °C

In: For the molecule Cc1ccc(C)c(C(=O)N(NC(=O)c2ccccc2)C(C)(C)C)c1 , report melting point.
Out: 198 °C

In: For the molecule CCOC(=O)C(C(=O)OCC)C(C(=O)OCC)C(=O)OCC , report melting point.
Out: 77 °C

Next up:
In: For the molecule Cn1c(=O)cc(O)c2ccccc21 , report melting point.
Out: 264 to 266 °C

---

readoutName: melting point (°C)
Numbers only, in °C.

Recorded melting point, per entry:
In: For the molecule CCCCOc1ccc(-c2nn(CCC#N)c(=S)[nH]2)cc1 , report melting point.
Out: 115

In: For the molecule N#CC1=C(N)OC2=C(CCCC2)C1c1ccccc1 (stereo unspecified) , report melting point.
Out: 261

In: For the molecule Cc1ccc(C(=O)C=Cc2ccc(Cl)cc2)cc1 , report melting point.
Out: 122

In: For the molecule O=[N+]([O-])c1cc(-c2ncco2)cc([N+](=O)[O-])c1 , report melting point.
Out: 130

In: For the molecule C(C#CCOc1ccccc1)#CCOc1ccccc1 , report melting point.
Out: 82

In: For the molecule O=[N+]([O-])c1ccc(Br)c2cccc(C=Nc3ccccc3)c12 , report melting point.
Out: 232

Next up:
In: For the molecule COc1ccc(C(=O)O)c(OC)c1 , report melting point.
Out: 109
